Numbers sourced from patent US20220022457A1.

System: mouse red blood cells (RBCs)
Assay name: Hemolysis study
Type: cell-based
Test settings: oligomer concentration giving 10% hemolysis, 1 h, 37° C.
Reported HC10 values for the following compounds.
Assay readout: HC10

{"Compound": "CCCCCCCC[n+]1ccn(Cc2ccc(C[N+]34CC[N+](Cc5ccc(Cn6cc[n+](CCCCCCCC)c6)cc5)(CC3)CC4)cc2)c1.[Br-].[Br-].[Cl-].[Cl-] [IDIP8]", "Observed value": ">2000 µg/mL"}
{"Compound": "CCCCCCCC[N+]12CC[N+](Cc3ccccc3C[N+]34CC[N+](CCCCCCCC)(CC3)CC4)(CC1)CC2.[Br-].[Br-].[Br-].[Br-] [DDO8]", "Observed value": ">2000 µg/mL"}
{"Compound": "CCCCCCCC[n+]1ccn(Cc2ccc(C[N+]34CC[N+](Cc5ccc(C[N+]67CC[N+](Cc8ccc(Cn9cc[n+](CCCCCCCC)c9)cc8)(CC6)CC7)cc5)(CC3)CC4)cc2)c1.[Br-].[Br-].[Br-].[Br-].[Br-].[Br-] [IDPPX8]", "Observed value": ">2000 µg/mL"}

====

System: mouse red blood cells (RBCs)
Assay name: Hemolysis study
Type: cell-based
Test settings: oligomer concentration giving 10% hemolysis, 1 h, 37° C.
Recorded HC10 for the following compounds

{"Compound": "CCCCCCCC[n+]1ccn(Cc2ccc(C[n+]3ccn(Cc4ccc(C[n+]5ccn(Cc6ccccc6Cn6cc[n+](Cc7ccc(Cn8cc[n+](Cc9ccc(Cn%10cc[n+](CCCCCCCC)c%10)cc9)c8)cc7)c6)c5)cc4)c3)cc2)c1 [IBN-C8, reference compound]", "HC10": ">2000 µg/mL"}
{"Compound": "CCCCCCCC[n+]1ccn(Cc2ccc(Cn3cc[n+](C/C=C/C[N+]45CC[N+](C/C=C/C[n+]6ccn(Cc7ccc(Cn8cc[n+](CCCCCCCC)c8)cc7)c6)(CC4)CC5)c3)cc2)c1.[Br-].[Br-].[Br-].[Br-].[Br-].[Br-] [IIDPBX8]", "HC10": ">2000 µg/mL"}

====

Tested on: Staphylococcus aureus (ATCC 6538, Gram-positive)
Assay name: Minimum inhibitory concentration, microdilution assay
Format: cell-based
Test settings: 24 h, lowest concentration with no visible growth
Listed compounds paired with reported MIC S.A.

{"Smiles record": "CCCCCCCC[n+]1ccn(Cc2ccc(Cn3cc[n+](Cc4ccc(C[N+]56CC[N+](C/C=C/C[N+]78CC[N+](Cc9ccc(C[n+]%10ccn(Cc%11ccc(Cn%12cc[n+](CCCCCCCC)c%12)cc%11)c%10)cc9)(CC7)CC8)(CC5)CC6)cc4)c3)cc2)c1.[Br-].[Br-].[Br-].[Br-].[Br-].[Br-].[Br-].[Br-]", "MIC S.A., µg/mL": 8}
{"Smiles record": "CCCCCCCC[N+]12CC[N+](Cc3ccc(C[N+]45CC[N+](CCCCCCCC)(CC4)CC5)cc3)(CC1)CC2.[Br-].[Br-].[Br-].[Br-]", "MIC S.A., µg/mL": 16}
{"Smiles record": "CCCCCCCC[n+]1ccn(Cc2ccc(Cn3cc[n+](C/C=C/C[N+]45CC[N+](C/C=C/C[n+]6ccn(Cc7ccc(Cn8cc[n+](CCCCCCCC)c8)cc7)c6)(CC4)CC5)c3)cc2)c1.[Br-].[Br-].[Br-].[Br-].[Br-].[Br-]", "MIC S.A., µg/mL": 4}
{"Smiles record": "c1ccc(Cn2cc[n+](Cc3ccc(C[N+]45CC[N+](Cc6ccc(C[N+]78CC[N+](Cc9ccc(C[n+]%10ccn(Cc%11ccccc%11)c%10)cc9)(CC7)CC8)cc6)(CC4)CC5)cc3)c2)cc1", "MIC S.A., µg/mL": 125}
{"Smiles record": "CCCCCCCC[n+]1ccn(Cc2ccc(C[N+]34CC[N+](Cc5ccc(Cn6cc[n+](CCCCCCCC)c6)cc5)(CC3)CC4)cc2)c1.[Br-].[Br-].[Cl-].[Cl-]", "MIC S.A., µg/mL": 2}
{"Smiles record": "C(=C\\C[N+]12CC[N+](Cc3ccc(C[n+]4ccn(Cc5ccccc5)c4)cc3)(CC1)CC2)/C[N+]12CC[N+](Cc3ccc(C[n+]4ccn(Cc5ccccc5)c4)cc3)(CC1)CC2", "MIC S.A., µg/mL": 125}
{"Smiles record": "CCCCCCCC[n+]1ccn(CC=CC[N+]23CC[N+](CC=CCn4cc[n+](CCCCCCCC)c4)(CC2)CC3)c1.[Br-].[Br-].[Br-].[Br-]", "MIC S.A., µg/mL": 8}
{"Smiles record": "CCCCCCCC[n+]1ccn(Cc2ccc(C[N+]34CC[N+](Cc5ccc(C[N+]67CC[N+](Cc8ccc(Cn9cc[n+](CCCCCCCC)c9)cc8)(CC6)CC7)cc5)(CC3)CC4)cc2)c1.[Br-].[Br-].[Br-].[Br-].[Br-].[Br-]", "MIC S.A., µg/mL": 8}
{"Smiles record": "CCCCCCCC[n+]1ccn(Cc2ccc(C[N+]34CC[N+](C/C=C/C[N+]56CC[N+](Cc7ccc(Cn8cc[n+](CCCCCCCC)c8)cc7)(CC5)CC6)(CC3)CC4)cc2)c1.[Br-].[Br-].[Br-].[Br-].[Br-].[Br-]", "MIC S.A., µg/mL": 16}
{"Smiles record": "CCCCCCCC[N+]12CC[N+](Cc3ccccc3C[N+]34CC[N+](CCCCCCCC)(CC3)CC4)(CC1)CC2.[Br-].[Br-].[Br-].[Br-]", "MIC S.A., µg/mL": 4}
{"Smiles record": "CCCCCCCC[n+]1ccn(Cc2ccccc2C[N+]23CC[N+](Cc4ccccc4Cn4cc[n+](CCCCCCCC)c4)(CC2)CC3)c1.[Br-].[Br-].[Br-].[Br-]", "MIC S.A., µg/mL": 8}
{"Smiles record": "CCCCCCCC[N+]12CC[N+](C/C=C/C[N+]34CC[N+](CCCCCCCC)(CC3)CC4)(CC1)CC2.[Br-].[Br-].[Br-].[Br-]", "MIC S.A., µg/mL": 4}
